Source of measurements: the Immune Epitope Database (IEDB)

target: HLA-A*29:02; test: IEDB peptide-MHC binding, purified MHC/competitive/fluorescence; filed as Kd, often an IC50 or EC50 that approximates it; bounds were set here for any values at or beyond the usual limits of such assays; conditions: source organism: Escherichia coli O157:H7 str. Sakai
recorded-endpoint: pKd
Units for pKd: none; it is -log10 of a concentration expressed in mol/L.

So what's the measured pKd for this one? `HQIWLALRY`
8.80

---

molecular target: HLA-A*33:01; experiment: IEDB peptide-MHC binding, purified MHC/competitive/radioactivity; filed as Kd, often an IC50 or EC50 that approximates it; bounds were set here for any values at or beyond the usual limits of such assays; settings: source organism: Dengue virus 1 Brazil/97-11/1997
In this section we review reported Kd values for a set of sequences.

The cases that follow already have their Kd on record.
- chain-sequence: "DYMTSMKRFK"
  result-value: "21.2 nM"
- chain-sequence: "LTWLGLNSR"
  result-value: "43.8 nM"
- chain-sequence: "VMAFIAFLR"
  result-value: "4.68 nM"

In the following, a different sequence is considered.
So what's the measured Kd for this one? `FNMLKRARNR`
421 nM

---

molecular target: HLA-A*02:03; experiment: IEDB peptide-MHC binding, purified MHC/competitive/radioactivity; filed as Kd, often an IC50 or EC50 that approximates it; bounds were set here for any values at or beyond the usual limits of such assays; conditions: source organism: Triticum aestivum
recorded-endpoint: pKd
Units for pKd: none; it is -log10 of a concentration expressed in mol/L.

So what's the measured pKd for this one? `SQVSFQQPL`
6.86

---

molecular target: HLA-A*02:01; test: IEDB peptide-MHC binding, purified MHC/competitive/fluorescence; filed as Kd, often an IC50 or EC50 that approximates it; bounds were set here for any values at or beyond the usual limits of such assays; conditions: source organism: Cryptococcus neoformans var. neoformans B-3501A
recorded-endpoint: Kd
Numeric answer plus unit only.

So what's the measured Kd for this one? `AIDDFCLFA`
13.5 nM

---

In this section we review reported Kd values for a set of sequences.
target: HLA-B*46:01; assay: IEDB peptide-MHC binding, purified MHC/competitive/fluorescence; filed as Kd, often an IC50 or EC50 that approximates it; bounds were set here for any values at or beyond the usual limits of such assays; conditions: source organism: Orthohantavirus andesense

So what's the measured Kd for this one? `DWMDRIEEF`
≥ 20 µM

So what's the measured Kd for this one? `EVLKAMSLY`
≥ 20 µM

---

In this section we review reported Kd values for a set of sequences.
biological target: HLA-A*26:01; test: IEDB peptide-MHC binding, purified MHC/competitive/radioactivity; filed as Kd, often an IC50 or EC50 that approximates it; bounds were set here for any values at or beyond the usual limits of such assays; settings: source organism: Triticum aestivum

- chain-sequence: "QFPGQQQPF"
  target-entity: "HLA-A*26:01"
  Kd: "≥ 25.9 µM"

In the following, a different sequence is considered.
So what's the measured Kd for this one? `VSFQQPLQQY`
≥ 43 µM

---

In this section we review reported pKd values for a set of sequences.
target: HLA-B*44:02; assay: IEDB peptide-MHC binding, purified MHC/direct/fluorescence; filed as Kd, often an IC50 or EC50 that approximates it; bounds were set here for any values at or beyond the usual limits of such assays; conditions: source organism: Giardia lamblia ATCC 50803
pKd: −log10 of the molar value.

The cases that follow already have their pKd on record.
- chain-sequence: "DIIRAHPWF"
  pKd: "≤ 4.70"
- chain-sequence: "SYPPPPASF"
  pKd: "≤ 4.70"

In the following, a different sequence is considered.
So what's the measured pKd for this one? `ETKKRMDYF`
≤ 4.70
